Molecular target: Zap1 (UniProt P47043)
Sequence: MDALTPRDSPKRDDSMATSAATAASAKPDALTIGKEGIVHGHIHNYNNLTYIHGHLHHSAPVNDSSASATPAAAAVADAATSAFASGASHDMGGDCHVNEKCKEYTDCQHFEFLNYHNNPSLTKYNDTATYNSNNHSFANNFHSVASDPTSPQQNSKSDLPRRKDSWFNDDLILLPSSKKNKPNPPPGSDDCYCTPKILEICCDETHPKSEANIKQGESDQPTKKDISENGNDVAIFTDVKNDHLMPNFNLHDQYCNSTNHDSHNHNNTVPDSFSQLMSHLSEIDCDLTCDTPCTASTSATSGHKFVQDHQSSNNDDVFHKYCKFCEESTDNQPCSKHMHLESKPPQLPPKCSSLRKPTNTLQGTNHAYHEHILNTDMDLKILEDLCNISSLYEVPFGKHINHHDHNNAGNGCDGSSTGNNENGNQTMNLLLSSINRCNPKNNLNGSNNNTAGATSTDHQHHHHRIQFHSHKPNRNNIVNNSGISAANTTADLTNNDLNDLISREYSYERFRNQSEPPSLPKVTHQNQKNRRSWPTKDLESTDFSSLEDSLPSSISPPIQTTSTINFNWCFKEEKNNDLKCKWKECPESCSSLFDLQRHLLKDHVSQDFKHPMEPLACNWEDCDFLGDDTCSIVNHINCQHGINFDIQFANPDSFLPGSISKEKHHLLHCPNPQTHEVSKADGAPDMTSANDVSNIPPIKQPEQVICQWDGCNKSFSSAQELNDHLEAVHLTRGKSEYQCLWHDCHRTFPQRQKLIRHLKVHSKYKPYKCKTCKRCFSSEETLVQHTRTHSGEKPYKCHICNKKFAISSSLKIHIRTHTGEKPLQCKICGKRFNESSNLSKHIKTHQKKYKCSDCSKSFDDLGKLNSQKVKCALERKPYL
Test: PBM E-score (8-mer binding enrichment) (E-score (-0.5 to 0.5)); higher = stronger / more preferred TF binding
Settings: protein concentration: 200 nM; construct: GST-full length
Whole data set: some 33,000 sequences, median “E-score (-0.5 to 0.5)” near -0.021, cut for the highest 2% near 0.32. For the sample, the highest values were picked, then their nearest neighbours and some sequences at random.
Reported values of PBM E-score for individual entries
The reply should be a number, written without any unit.

Use these answered entries as a reference point.
# CHAIN SEQUENCE, ASSAY RESULT
rows = [
    ("AGAACCCA", 0.19),
    ("GACTGTAC", -0.147),
    ("ACAGAGTA", -0.0251),
    ("TAGTTACA", 0.158),
    ("CGGTTACA", 0.411),
]

Here is the next item to consider.
stdin: Could you share which PBM E-score value was measured for CGTACAGA ?
stdout: -0.231
